Assay: self-splicing fitness, log relative to wild type (ln ratio); higher = more splicing; Tetrahymena group I intron in knt gene, E. coli kanamycin selection, DiMSum; sequences stand for … in CUCUCU…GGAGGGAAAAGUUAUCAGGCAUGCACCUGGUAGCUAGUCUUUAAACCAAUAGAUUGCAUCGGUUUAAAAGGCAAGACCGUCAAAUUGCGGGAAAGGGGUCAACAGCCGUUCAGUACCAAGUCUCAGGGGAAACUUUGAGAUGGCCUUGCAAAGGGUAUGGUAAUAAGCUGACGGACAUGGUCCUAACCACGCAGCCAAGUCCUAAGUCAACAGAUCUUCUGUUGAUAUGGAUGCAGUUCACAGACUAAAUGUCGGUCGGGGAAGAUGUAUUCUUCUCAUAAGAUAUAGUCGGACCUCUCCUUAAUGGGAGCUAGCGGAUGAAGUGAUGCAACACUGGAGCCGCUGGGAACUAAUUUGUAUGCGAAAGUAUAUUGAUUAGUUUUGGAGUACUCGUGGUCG;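 further: selection with 25 µg/mL kanamycin versus none on LB agar overnight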
Conditions: 37 °C
// Not met strictly below -0.8 in self-splicing fitness (ln); Met otherwise

Query block: Form field: self-splicing fitness (ln) at least -0.8? Entry: `AUGAAGCAAUAUUACGCUAA`
Result block: Met

Data provenance is the supplement of paper PMC7877785.
